Data provenance: paper PMC8807399

Experiment: In vitro microsomal stability, human
Type: in vitro ADME
Conditions: human microsomes, 1 µM; value of 10 = low clearance, essentially below detection limit
Note to self: values exactly at 60 µL/m/mg prot are 1.0. So Mic CL h at or above 60 µL/m/mg prot is 1.0, below is 0.0.

Some solved cases for reference:
O=C(CCc1ccc(OC(F)(F)F)cc1)N1C[C@@H]2CN(C(=O)c3ccc4[nH]nnc4c3)C[C@H]2C1 [Compound 14]	0.0
O=C(OCc1cc(Cl)cc(Cl)c1)N1CC[C@@H]2CN(C(=O)c3ccc4[nH]nnc4c3)C[C@H]2C1 (relative stereo) [Compound 6]	0.0

**Query** Identify whether the reported Mic CL h of the following compound is 60 µL/m/mg prot or greater: O=C(OCc1cc(Cl)cc(Cl)c1)N1C[C@@H]2CN(C(=O)c3ccc4[nH]c(=O)oc4c3)C[C@@H]2C1 [Compound 5]
**Result** 1.0

**Query** Identify whether the reported Mic CL h of the following compound is 60 µL/m/mg prot or greater: O=C(OCc1cc(Cl)cc(Cl)c1)N1CCC2(CC1)CN(C(=O)c1ccc3[nH]c(=O)oc3c1)C2 [Compound 4]
**Result** 0.0

**Query** Identify whether the reported Mic CL h of the following compound is 60 µL/m/mg prot or greater: O=C(OCc1cc(Cl)cc(Cl)c1)N1CC[C@@H]2CN(C(=O)c3ccc4[nH]nnc4c3)C[C@@H]2CC1 [Compound 10]
**Result** 1.0
